Data provenance is the supplement of paper PMC10567573.

For each record, write down the corresponding protein stability index.
Test: protein stability index of a GFP-peptide fusion (GPS, HEK-293T) (PSI 1-6); higher = more stable;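 note: 24-mer peptide tiles fused after GFP, lentivirally expressed, FACS-sorted into six equal bins by GFP/DsRed ratio, decoded by Illumina sequencing, PSI is the read-weighted mean bin number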
Conditions: treatment: DMSO; c terminus: a fixed tail appended
Enter the number alone.

GET /values?readout=protein stability index&item= TLGYMPTEMELLEVSQHIKMRMGG [CABP4]
2.96

protein stability index lookup needed for SLGQDLRRLRQELLKTEALKRQAQ [DAPK3] , thanks.
3.09

Entry ILGPVVGGYLTELEDGFYLTAFIC [MFSD9] : reported protein stability index = ?
2.99

Look up protein stability index: LAKDFIRRLLVKDPKRRMTIAQSL [DAPK3]
2.96

----------
Test: protein stability index of a GFP-peptide fusion (GPS, HEK-293T) (PSI 1-6); higher = more stable
Settings: treatment: DMSO; c terminus: a fixed tail appended
readout.type: protein stability index
// keep it numeric: no unit symbol after the value

Quick check: protein stability index of CKCSEGFVLAEDGRRCKKCTEGPI [MATN2] ?
4.99

Which protein stability index value belongs to NRKSILSRHLNSQVKKTTTRWCHI [PHTF1] ?
2.57

// lookup protein stability index for SELQAYIAQCQDSPTSGKFRRGSG [MCOLN1]
4.21

protein stability index for FRKFIPKCSKIVIDFDSINSRPSQ [DCTD] ?
2.4

Requested field: protein stability index. Item: EDYPAALPNHKPKGTFKDYVRDRA [ETS1]
4.57

Quick one: protein stability index of FRRGSGSACSLLCCCGRDPSEEHS [MCOLN1] ?
3.58

----------
Assay: protein stability index of a GFP-peptide fusion (GPS, HEK-293T) (PSI 1-6); higher = more stable
Details: treatment: DMSO; c terminus: a fixed tail appended
Answer each item with its documented protein stability index.
Provide a numeric answer; units are not to be included.

Look at this sequence and give its reported protein stability index. LSPPEQAAQPMQPLPESLASLHPS [PLAGL1]
5.12

Form field: reported protein stability index of ILDDGTISAHKPLLISSCDWMAAM [RHOBTB2]
2.29

# get_value(readout='protein stability index', item= TTSTLASSLPGHAAKTLPGGAGKG [EHMT1] )
4.77

Given LFENSLCRLTHIPAYKVSGDKNEE [ZER1] , state its recorded protein stability index.
4.05

# protein stability index lookup, item THQHWQQFEPQLTLWDVFGANKEV [RSAD1]
2.65

Given the entry DAVQTSLMDEGASSEKKRQSSADG [RBBP5] , report its measured protein stability index.
5.49

Field request: protein stability index | item: GLTLGRSFSNYRPFEPQALGLSPS [SEPHS2]
2.78

Reported protein stability index for EGRPGAATFHVGGGPAQNAPHQQP [TFE3] : what is it?
4.79

Which protein stability index reading was recorded for the sequence VRYSDCCERVVINVSGLRFETQMK [KCNA4] ?
2.31

If you can, please state the reported protein stability index value of MTGLALKHMFERSFTQGEGARPLS [MATN2] .
2.69

Given the sequence GLKPNSLYYFRLAARSPQGLGAST [PTPRD] , what is its reported protein stability index?
1.89

Bench note: what protein stability index did TDANLPSGGKGFKLRRQPSEPKRS [RAB22A] show?
4.88

I am curious: what protein stability index value has been reported for AGEEDPSGMVTIITGLPLDNPSVL [SMG5] ?
3.7

// lookup protein stability index for LCIIWFSFELLVRFFACPSKATFS [KCNA3]
3.13

For the sequence shown here, RVPLGRLELLEEVLALGLRTDVGI [RSAD1] , give the reported protein stability index.
2.1

----------
Assay: protein stability index of a GFP-peptide fusion (GPS, HEK-293T) (PSI 1-6); higher = more stable
Settings: treatment: DMSO; c terminus: a fixed tail appended
In this scheme, each record receives a class according to its protein stability index; the ranges are bucket A = under 3, bucket B = from 3 up to 5, bucket C = 5 and over

Determine which band this sequence sits in: KQLRRQMWWRGCKIKAIMALVAAI [VAMP4]
bucket A

Quick check: band for LQGVRLSENVVNRMKEPSSPPPAP [CHCHD6]
bucket B

Tag the class for EVTLSEAGSTAGAAETRGAVEGAA [PALM]
bucket C

State the band of HWDLAELLPNQSHGNQSAGEDQAF [SLC22A15]
bucket B

Class label required: EAEKLERQLALPATEQAATQESTF [NOP53]
bucket C

# bin label for SAGKRGPDRGSPEYRQRRERNNIA [CEBPD]
bucket B

Which of the defined bands does the recorded protein stability index of STWALYGRAVDQDKVLRFAQQIRL [MYORG] sit within?
bucket A

Determine which band this sequence sits in: NDPEKNFLTTAIRPHGIFGPRDPQ [NSDHL]
bucket B

Would you mind sorting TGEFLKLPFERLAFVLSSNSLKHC [KLHL13] into the appropriate category?
bucket A

Tag the class for RSTNLLAAETASLEEQLQGWGEVM [ARL6IP1]
bucket B

Which band does STRQTQSWTAVTPQQTWASPAEVV [C18orf25] fall in?
bucket B

----------
Assay: protein stability index of a GFP-peptide fusion (GPS, HEK-293T) (PSI 1-6); higher = more stable
Details: treatment: DMSO; c terminus: a fixed tail appended
Outcome: Condition met for protein stability index of at least 3; Condition not met for anything lower.

Given FVLFLFAYLVTVRGNLSILAAVLV [OR3A1] , state whether its protein stability index is at least 3.
Condition met

Test whether the sequence TYEVRMRTNLPIFKLKESCVRRRY [SNX12] records protein stability index of 3 or higher.
Condition not met

Decide: is the reported value of protein stability index for PGPTAPSPTSRPPWAVDPAFAERY [PDLIM7] equal to or greater than 3?
Condition not met

Reported protein stability index at or above 3? GLDSISHDSANCELPLLTPCSKAV [ETS2]
Condition met

Please tell me: is the sequence LLIDFAYTSQITVEEGNVQTLLPA [KLHL20] at or over 3 in terms of protein stability index?
Condition not met

Could you verify whether the entry QQELRELRRELELLGRERDRVQVE [PRPH] shows protein stability index of no less than 3?
Condition met

Please indicate if the recorded protein stability index for LQRLRENAAHLGDKRRDLAHLAAE [TRIM39] meets or exceeds 3.
Condition met

Check if protein stability index >= 3 (inclusive). Item: IREALHELLCCTNVSTKEGIHLAL [INTS4]
Condition not met

Record RERQRRLEVEREAEKKREAKQRAK [LRRC59] ; criterion: protein stability index no lower than 3. Met?
Condition met

Answer whether protein stability index of APLLRWVLTLSFLVATVAVGLYAM [HMOX1] is greater than or equal to 3.
Condition not met

Test whether the sequence VYSCAFSPDSSMLCSVGASKAVFL [WSB1] records protein stability index of 3 or higher.
Condition not met

Decide: protein stability index of ENIEVKEGGLYFERRPVAQSTDGA [SPSB2] >= 3?
Condition met

Test whether the sequence SIALRNISLAKGPPGPKGDQGDEG [SCARA5] records protein stability index of 3 or higher.
Condition met

API: above_or_equal(metric=protein stability index, cutoff=3) for item SECGKAFPRKSELTEHQRIHTGIK [ZNF649]
Condition met

Is protein stability index at least 3? Consider QLLKGRVDNISTLDSEIKKNSDGM [CD207]
Condition met

----------
What protein stability index was measured for each of the following?
Assay: protein stability index of a GFP-peptide fusion (GPS, HEK-293T) (PSI 1-6); higher = more stable
Details: treatment: DMSO; c terminus: a fixed tail appended
Reply briefly: the number, and no unit.

Param item = GYHQVPGSAAPGSPLAADPACLGQ [FOXJ1] ; retrieve measured protein stability index.
4.46

Bench note: what protein stability index did FDVVVILTCSLSFLLCARSLLRGF [MCOLN1] show?
3.38

For the sequence shown here, EHIADALRAIDFGTDEEEEEFIEE [TRIM63] , give the reported protein stability index.
5.34

What value of measured protein stability index is listed for ENIKGYYIIIVPLKKSRGKFIKPW [PTPRD] ?
2.67

Given EEDDGRGRGLLRWDSFSAWLHCVC [DENND6A] , state its recorded protein stability index.
3.06

// query protein stability index value for entry AQTPLHVAAETGHTSTARLLLHRG [RIPK4]
3.89

Record request: protein stability index value, item GERETRTPEELTILGETQEEEDEI [CLCN6]
5.79

protein stability index lookup needed for CAGKAKRSGGHAPRVRELLLDALS [ESR2] , thanks.
2.38

Need protein stability index of QAIEPQAIVQQVPAPSRMQMPQGN [SNX8] , thanks.
4.64

Any idea what its protein stability index is? The sequence is MSDSTWMSADPHLASSLSPSQDER [NOL4L]
5.31

Give its protein stability index value. Item: PPALLPLYFQWYIFYFVIQRKKWV [FADS1]
2.68

Name the reported protein stability index value associated with the sequence TGTVHRIDNTTVIYNSNIFTDPFF [KCNA1]
2.89

Reported protein stability index, sequence CFIQSSHLIRHQITHTREEQPHGR [ZNF8] : ____
3.4

Returns the measured protein stability index for the input sequence. Input: YSLFVGLFLFGYKFSGLYILSFTV [SLC35F2]
3.24

Need protein stability index of RNLGKVVHYAKVQLRFQHSQDVSD [PLEKHN1] , thanks.
2.49

For KWLPQQNAAHSLLSTNDKTIKLWK [PPP2R2C] , what is its reported protein stability index?
2.88

Could you share which protein stability index value was measured for CDKKAMVWDMRSGQCVQAFETHES [GNB5] ?
3.67

Item SSSDLVMRARDSVYHIECFRCSVC [ISL2] has what recorded protein stability index?
2.5

Which protein stability index is listed for ISPETMVALLTGKFSNIVDKFVIV [CDC25B] ?
2.29

Which protein stability index value is on record for IQPDDLINQLTFIMDANQTYLVSE [FAF2] ?
2.32

Which protein stability index is reported for this sequence? FQQLMVETCSCGYYLHPLPAGAEY [SCNN1D]
2.6
